# targetEntity: HGFR (Homo sapiens, UniProt P08581)
# Construct: purchased Upstate 14-526
# Sequence (P08581 974-1390 limits assumed): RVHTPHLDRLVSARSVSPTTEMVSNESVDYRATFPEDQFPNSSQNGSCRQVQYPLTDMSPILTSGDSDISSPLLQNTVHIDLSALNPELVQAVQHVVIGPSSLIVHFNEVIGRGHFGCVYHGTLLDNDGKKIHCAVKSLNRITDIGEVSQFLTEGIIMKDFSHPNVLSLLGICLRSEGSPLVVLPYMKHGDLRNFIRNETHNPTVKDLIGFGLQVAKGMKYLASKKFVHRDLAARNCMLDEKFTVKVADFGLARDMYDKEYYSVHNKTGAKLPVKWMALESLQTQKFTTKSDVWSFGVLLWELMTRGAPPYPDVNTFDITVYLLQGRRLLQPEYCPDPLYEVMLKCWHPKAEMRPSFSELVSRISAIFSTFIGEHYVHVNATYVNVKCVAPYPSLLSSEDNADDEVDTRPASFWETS
# protocolDetails: HGFR continuous-coupled spectrophotometric assay
# Assay type: biochemical
# experimentalConditions: at 1 μM; Table 8, library procedure 43; read-out: % Inhibition (percent c-MET inhibition)
Kindly supply the reported inhibition at 1 µM values for the records listed here.
The figure you give is taken to be in %; do not add the unit.

State the recorded inhibition at 1 µM for this entry: CC1CN(C(=O)c2ccc(-c3cnc(N)c(OCc4ccccc4OC(F)F)c3)cc2)CC(C)N1 (stereo not drawn)
24

Item under review: CC1CN(C(=O)c2ccc(-c3cnc(N)c(OCc4cc(F)ccc4C(F)(F)F)c3)cc2)CC(C)N1 (stereo not drawn) . Reported inhibition at 1 µM?
17

Looking for the measured inhibition at 1 µM of CCOC(=O)C1CCN(C(=O)c2ccc(COc3cc(-c4ccc(C(=O)N5CC(C)NC(C)C5)cc4)cnc3N)cc2)CC1 (stereo not drawn) , can you help?
12

# query: inhibition at 1 µM of entry CC1CN(C(=O)c2ccc(-c3cnc(N)c(OCc4cc(F)cc(F)c4)c3)cc2)CC(C)N1 (stereo not drawn)
12

Endpoint output: inhibition at 1 µM of CC1CN(C(=O)c2ccc(-c3cnc(N)c(OCc4cc(-c5ccccc5)no4)c3)cc2)CC(C)N1 (stereo not drawn) . Value?
16

GET /values?readout=inhibition at 1 µM&item= COc1ccccc1-c1nc(COc2cc(-c3ccc(C(=O)N4CC(C)NC(C)C4)cc3)cnc2N)no1 (stereo not drawn)
9

Return reported inhibition at 1 µM; argument: CC1CN(C(=O)c2ccc(-c3cnc(N)c(OCc4ccc5nc(C(F)(F)F)cc(OC(C)C)c5c4)c3)cc2)CC(C)N1 (stereo not drawn)
17

Using the record for Cc1cc(-c2onc(C)c2COc2cc(-c3ccc(C(=O)N4CC(C)NC(C)C4)cc3)cnc2N)no1 (stereo not drawn) , report its inhibition at 1 µM.
25

Entry under review: CC1CN(C(=O)c2ccc(-c3cnc(N)c(OCc4ccc5ccccc5c4Br)c3)cc2)CC(C)N1 (stereo not drawn) . Reported inhibition at 1 µM?
58

----------
# targetEntity: Met kinase domain (GST fusion protein) (Homo sapiens)
# Construct: Purified GST fusion protein containing the Met kinase domain
# Sequence (P08581 1078-1345 limits assumed): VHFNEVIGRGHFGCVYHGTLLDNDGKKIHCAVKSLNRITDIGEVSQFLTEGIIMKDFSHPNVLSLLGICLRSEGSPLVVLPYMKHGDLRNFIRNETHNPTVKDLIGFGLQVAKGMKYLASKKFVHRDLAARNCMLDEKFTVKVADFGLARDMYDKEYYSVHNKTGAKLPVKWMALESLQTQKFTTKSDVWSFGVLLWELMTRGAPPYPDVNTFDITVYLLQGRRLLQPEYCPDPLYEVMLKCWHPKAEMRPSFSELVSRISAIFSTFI
# protocolDetails: Met transphosphorylation assay (ELISA, poly(glu-tyr) substrate)
# Type: biochemical
# experimentalConditions: read-out: Met IC50
reportedMetric: IC50 (nM)
Numeric answer only, unit nM assumed.

Entry under review: "CC(=O)N1CCN(Cc2c[nH]c3ccc(-c4cnc(N)c(OCc5c(F)ccc(F)c5Cl)n4)cc23)CC1" . Reported IC50?
1500

// query IC50 value for entry CC(Oc1nc(-c2ccc(C(=O)N3CCC(N4CCCC4)CC3)cc2)cnc1N)c1c(F)ccc(F)c1Cl (centres unmarked)
170

What value of IC50 has been reported for the following molecule? CC(Oc1nc(-c2ccc(C(=O)NCCN3CCCC3)cc2)cnc1N)c1c(F)ccc(F)c1Cl (centres unmarked)
110

Give the measured IC50 of "CC(C)c1cccc(-c2cnc(N)c(OCc3c(Cl)cccc3Cl)c2)c1" .
15900

Request the reported IC50 associated with "CCN(CC)Cc1c[nH]c2ccc(-c3cnc(N)c(OCc4c(Cl)cccc4Cl)c3)cc12"
3230

----------
# targetEntity: Met kinase domain (GST fusion protein) (Homo sapiens)
# Construct: Purified GST fusion protein containing the Met kinase domain
# protocolDetails: Met transphosphorylation assay (ELISA, poly(glu-tyr) substrate);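 note: Cell-free ELISA with plate-bound poly(Glu:Tyr 4:1) phosphorylated by GST-fused Met kinase domain plus ATP and Mn2+, phosphotyrosine detected by anti-phosphotyrosine antibody with HRP and ABTS read-out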
# Type: biochemical
# experimentalConditions: plain numbers in column Met IC50 (μM) of Table 2; read-out: Met IC50
For each of the compounds below, state its IC50.
Answer format: numeric, µM implied, no suffix.

What value of IC50 has been reported for the following compound? CC(Oc1cc(-c2cncc(C(=O)N3CCN(C)CC3)c2)cnc1N)c1c(F)ccc(F)c1Cl (stereo not drawn) [Example I-520]
0.134

# get_value(readout='IC50', item= CC(Oc1cc(-c2cccc(C(=O)N3CCC[C@@H]3CN3CCCC3)c2)cnc1N)c1c(Cl)cccc1Cl (stereo partly drawn) [Example I-396] )
0.18

Any idea what IC50 was measured for CC(Oc1cc(-c2ccccn2)cnc1N)c1c(F)ccc(F)c1Cl (stereo not drawn) [Example I-524] ?
0.612

What IC50 value was documented for this compound, CC(Oc1cc(-c2ccc(NC(=O)N3CCN(C)CC3)cc2)cnc1N)c1c(Cl)ccc(F)c1Cl (stereo not drawn) [Example I-371] ?
0.057

Recorded IC50 for CC(Oc1cc(OCc2ccccn2)cnc1N)c1c(F)ccc(F)c1Cl (stereo not drawn) [Example I-539] , please?
3.2

# get_value(readout='IC50', item= CC(Oc1cc(-c2ccc(NC(=O)NCCO)cc2)cnc1N)c1c(Cl)ccc(F)c1Cl (stereo not drawn) [Example I-373] )
0.064

What value of IC50 has been recorded for this entry: Nc1ncc(-c2cccnc2)cc1OCc1ccccc1Cl [Example I-493]
4.6

Field request: IC50 | item: CC(Oc1cc(-c2ccc(C(=O)N3CCN(C)CC3)nc2)cnc1N)c1c(Cl)ccc(F)c1Cl (stereo not drawn) [Example I-514]
0.0213

// returns reported IC50 for input Nc1ncc(-c2ccccn2)cc1OCc1ccc(Cl)cc1 [Example I-496]
14

For Nc1ncc(-c2cncnc2)cc1OCc1c(F)ccc(F)c1Cl [Example I-503] , what is its reported IC50?
2.15

----------
Please provide measured inhibition at 1 pM for the entries that follow.
# targetEntity: HGFR (Homo sapiens, UniProt P08581)
# Construct: purchased Upstate 14-526
# protocolDetails: HGFR continuous-coupled spectrophotometric assay
# Format: biochemical
# experimentalConditions: at 1 pM; Table 6, library procedure 41; read-out: % Inhibition (percent c-MET inhibition)
The reply should be a number in %, with the unit left off.

Recorded inhibition at 1 pM for Nc1ncc(C(=O)NCc2ccc(OC(F)F)cc2)cc1OCc1c(Cl)cccc1Cl [Example L-305] , please?
26

What inhibition at 1 pM value was documented for this molecule, N#CC1(c2ccccc2)CCN(C(=O)c2cnc(N)c(OCc3c(Cl)cccc3Cl)c2)CC1 [Example L-193] ?
37

Record request: inhibition at 1 pM value, item Nc1ncc(C(=O)NC[C@]2(O)CC[C@H](c3ccccc3)CC2)cc1OCc1c(Cl)cccc1Cl [Example L-272]
15

Which inhibition at 1 pM value is on record for COc1ccccc1CNC(=O)c1cnc(N)c(OCc2c(Cl)cccc2Cl)c1 [Example L-183] ?
32

# get_value(readout='inhibition at 1 pM', item= Nc1ncc(C(=O)N2CCC(O)C2)cc1OCc1c(Cl)cccc1Cl [Example L-227] )
83

Recorded inhibition at 1 pM for Nc1ncc(C(=O)NCc2cc3cc[nH]c3cn2)cc1OCc1c(Cl)cccc1Cl [Example L-275] , please?
28

I'd like to know its inhibition at 1 pM. The molecule in question is Nc1ncc(C(=O)NCCN2CCN(Cc3ccccc3)CC2)cc1OCc1c(Cl)cccc1Cl [Example L-263]
36

Look up inhibition at 1 pM for this molecule: Nc1ncc(C(=O)N2CCN(CCOCCO)CC2)cc1OCc1c(Cl)cccc1Cl [Example L-202]
33

What does the record list as inhibition at 1 pM for CN(C)CCNC(=O)c1cnc(N)c(OCc2c(Cl)cccc2Cl)c1 [Example L-221] ?
29

Which value of inhibition at 1 pM has been reported for CC(C)NC(=O)CN1CCN(C(=O)c2cnc(N)c(OCc3c(Cl)cccc3Cl)c2)CC1 [Example L-201] in the records?
30

What does the data say about its inhibition at 1 pM? Entry: Nc1ncc(C(=O)NC2CCSC2=O)cc1OCc1c(Cl)cccc1Cl [Example L-189]
35

Please look up its inhibition at 1 pM: CN(CC#N)C(=O)c1cnc(N)c(OCc2c(Cl)cccc2Cl)c1 [Example L-237]
30

Any idea what its inhibition at 1 pM is? The molecule is Nc1ncc(C(=O)N2CCN(CC(=O)N3CCCC3)CC2)cc1OCc1c(Cl)cccc1Cl [Example L-206]
32

Consider the molecule shown here: Nc1ncc(C(=O)N2CCC(Cc3cccc(CO)c3)CC2)cc1OCc1c(Cl)cccc1Cl [Example L-316] What is its recorded inhibition at 1 pM?
11

Would you kindly share the measured inhibition at 1 pM for Nc1ncc(C(=O)NCCc2c[nH]c3ccc(Cl)cc23)cc1OCc1c(Cl)cccc1Cl [Example L-212] ?
36

Requested field: inhibition at 1 pM. Item: Nc1ncc(C(=O)N2CCN(CCCN3CCOCC3)CC2)cc1OCc1c(Cl)cccc1Cl [Example L-261]
40

----------
# targetEntity: HGFR (Homo sapiens)
# Construct: purchased Upstate 14-526
# protocolDetails: HGFR continuous-coupled spectrophotometric assay
# Type: biochemical
# experimentalConditions: at 1 pM; Table 7, library procedure 42; read-out: % Inhibition (percent c-MET inhibition)
Assign inhibition at 1 pM to each entry below.

Requested field: inhibition at 1 pM. Item: "Nc1ncc(-c2ccc(C(=O)N3CCC(N4CCCC4)CC3)cc2)cc1OCc1ccccc1OC(F)F"
27%

Which measured inhibition at 1 pM value corresponds to "Cc1nc2ccc(COc3cc(-c4ccc(C(=O)N5CCC(N6CCCC6)CC5)cc4)cnc3N)cc2c(=O)[nH]1" ?
12%

Any idea what its inhibition at 1 pM is? The molecule is "Cc1onc(-c2ccccc2)c1COc1cc(-c2ccc(C(=O)N3CCC(N4CCCC4)CC3)cc2)cnc1N"
19%

Bench note: what inhibition at 1 pM did "Nc1ncc(-c2ccc(C(=O)N3CCC(N4CCCC4)CC3)cc2)cc1OCc1cccc(Oc2ccccc2)c1" show?
34%

Fill in: inhibition at 1 pM of "Nc1ncc(-c2ccc(C(=O)N3CCC(N4CCCC4)CC3)cc2)cc1OCc1ccc(C(=O)NC2CCN(Cc3ccccc3)CC2)cc1" is ___
11%

Field request: inhibition at 1 pM | item: "CN(C)c1ccc(NC(=O)c2cccc(COc3cc(-c4ccc(C(=O)N5CCC(N6CCCC6)CC5)cc4)cnc3N)c2)cc1"
23%

Given "Nc1ncc(-c2ccc(C(=O)N3CCC(N4CCCC4)CC3)cc2)cc1OCc1nc(-c2ccc(C(=O)N3CCCC3)cc2)no1" , state its recorded inhibition at 1 pM.
11%

Which inhibition at 1 pM value is on record for "COCOc1ccc(S(=O)(=O)c2ccc(COc3cc(-c4ccc(C(=O)N5CCC(N6CCCC6)CC5)cc4)cnc3N)cc2)cc1" ?
18%

Returns the measured inhibition at 1 pM for the input molecule. Input: "CN(C)CCNC(=O)c1cccc(COc2cc(-c3ccc(C(=O)N4CCC(N5CCCC5)CC4)cc3)cnc2N)c1"
20%

Please report the recorded inhibition at 1 pM for "Nc1ncc(-c2ccc(C(=O)N3CCC(N4CCCC4)CC3)cc2)cc1OCc1ccc(F)c(F)c1F" .
15%

Reported inhibition at 1 pM, molecule "Nc1ncc(-c2ccc(C(=O)N3CCC(N4CCCC4)CC3)cc2)cc1OCc1ccc(S(=O)(=O)N2CCOCC2)cc1" : ____
14%

Which inhibition at 1 pM is listed for "COc1ccccc1-c1nc(COc2cc(-c3ccc(C(=O)N4CCC(N5CCCC5)CC4)cc3)cnc2N)c(C)o1" ?
19%

Return reported inhibition at 1 pM; argument: "Cc1ccn2cc(COc3cc(-c4ccc(C(=O)N5CCC(N6CCCC6)CC5)cc4)cnc3N)nc2c1"
16%

Quick one: inhibition at 1 pM of "Cc1ccc(F)cc1COc1cc(-c2ccc(C(=O)N3CCC(N4CCCC4)CC3)cc2)cnc1N" ?
29%

Returns the measured inhibition at 1 pM for the input molecule. Input: "Cn1ccnc1COc1cc(-c2ccc(C(=O)N3CCC(N4CCCC4)CC3)cc2)cnc1N"
14%

Would you kindly share the measured inhibition at 1 pM for "Nc1ncc(-c2ccc(C(=O)N3CCC(N4CCCC4)CC3)cc2)cc1OCc1cccc(C(=O)Nc2cccnc2)c1" ?
10%

Reported inhibition at 1 pM for "Nc1ncc(-c2ccc(C(=O)N3CCC(N4CCCC4)CC3)cc2)cc1OCc1cc(Br)cc(Br)c1" : what is it?
45%

So what does the record say about inhibition at 1 pM for "Cc1cccc(COc2cc(-c3ccc(C(=O)N4CCC(N5CCCC5)CC4)cc3)cnc2N)c1F" ?
28%
